List of melting point values.

MOLECULE	melting point
Cc1cc(Nc2ccc(C#N)cc2)c([N+](=O)[O-])c(C)n1	171 to 172 °C

--- query ---
Asked: Answer with the recorded melting point for the molecule listed here: O=C(Nc1ccc(F)cc1)c1ccc([N+](=O)[O-])cc1
Given back: 143 to 146 °C

====

List of melting point values.

Solved entries:
COMPOUND	melting point
CN1CCN(CC2CCCCN2CC(=O)N2c3ccccc3NC(=O)c3ccccc32)CC1 (stereo not drawn)	200 to 202 °C
CCOC(=O)c1cnc2cc3c(cc2c1O)OCO3	> 290 °C

--- query ---
Asked: Answer with the recorded melting point for the compound listed here: N#Cc1cc2c(c(-c3ccccc3Cl)c1)OC(CN)C2 (stereo not drawn)
Given back: 173 to 175 °C

====

OBSERVATION_TYPE: melting point

Solved entries:
COMPOUND_STRING	ASSAY_VALUE
CCCc1nn(C)c2c(=O)[nH]c(-c3ccccc3OCC)nc12	143 to 146 °C
O=C(O)CCCCCOC(c1ccccc1)(c1ccccc1)c1ccccc1	114 to 116 °C
COc1ccc(CCC(=O)NNC(=O)c2ccc3[nH]ncc3c2)cc1C(F)(F)F	224 to 225 °C

--- query ---
Asked: Answer with the recorded melting point for the molecule listed here: O=C(NCc1ccc(Cl)cc1)c1cn(CCO)c2sc(CCCO)cc2c1=O
Given back: 174 to 178 °C

====

List of melting point values.

Solved entries:
COMPOUND	OBSERVATION_TYPE	ASSAY_VALUE
Cc1cc(F)ccc1OC1CC(C#CC(C)N(O)C(N)=O)C1 (single isomer, unassigned; (+))	melting point	139 to 140 °C
O=c1[nH]c2ccc(Cl)cc2c(=O)n1CCCCN1CC=C(c2ccccc2)CC1	melting point	214 to 222 °C
CC(C)(CO)NC(=O)c1nn(-c2ccc(F)cc2F)c2c1C1CCC2C1 (stereo unspecified)	melting point	142 to 144 °C
Cc1ccc2c(NCc3ccccc3)c3c(nc2c1)CCCC3O (stereo unspecified)	melting point	148 to 153 °C
CC(=O)N(C)c1cccc(-c2ccnc3c(C#N)cnn23)c1	melting point	195 to 197 °C

Asked: Answer with the recorded melting point for the compound listed here: O=C(c1ccco1)c1cnn2c(-c3cccnc3)ccnc12
Given back: 228 to 229 °C

====

List of melting point values.

Solved entries:
MOLECULE	ASSAY_VALUE
N#Cc1ccc2cc(-c3ccc(O)cc3)oc2c1	272 to 274 °C
COc1cc(OC)cc(-c2ncoc2-c2ccc(OC)c(O)c2N)c1	140 to 143 °C
C=CCC(=O)c1cnn(-c2ccccn2)c1S(N)(=O)=O	140 to 142 °C
COc1ccc2c(c1Br)CCC1CN(C)CC21 (configuration not stated)	144 to 146 °C
OCCN1CCN(c2ccc(Nc3ncc4ccc(-c5cccnc5)n4n3)cc2)CC1	189 to 190 °C

Asked: Answer with the recorded melting point for the molecule listed here: O=C1NCc2ccccc2C([N+](=O)[O-])N1 (configuration not stated)
Given back: 93 to 95 °C

Asked: Answer with the recorded melting point for the molecule listed here: CCOC(=O)c1ccc(OCc2cnccn2)cc1
Given back: 76.1 °C

Asked: Answer with the recorded melting point for the molecule listed here: OC(CCCCBr)(c1ccc(F)cc1)c1ccc(F)cc1
Given back: 55 °C

Asked: Answer with the recorded melting point for the molecule listed here: COc1cc(C(C)C)c2c(c1)S(=O)(=O)N(COC(=O)C1CCC(=O)N1)C2=O (configuration not stated)
Given back: 159 to 160 °C

Asked: Answer with the recorded melting point for the molecule listed here: N#CCC(=C(C#N)C#N)c1ccccc1
Given back: 92 to 98 °C

Asked: Answer with the recorded melting point for the molecule listed here: CN1CCN(Cc2cc(C(=O)c3cccs3)cc(C(C)(C)C)c2O)CC1
Given back: 118 to 119 °C

Asked: Answer with the recorded melting point for the molecule listed here: CCCCc1c(OC)cc(C(=O)O)nc1OC
Given back: 113 to 114 °C

Asked: Answer with the recorded melting point for the molecule listed here: CC(=O)c1ccc(OCCOc2ccc3ccccc3c2)cc1F
Given back: 144 to 146 °C

Asked: Answer with the recorded melting point for the molecule listed here: CCc1cn(C2CC(N=[N+]=[N-])C(CO)O2)c(=O)[nH]c1=O (configuration not stated)
Given back: 118 to 120 °C

Asked: Answer with the recorded melting point for the molecule listed here: Cc1oc(-c2ccco2)nc1COc1ccc(COc2nn(Cc3ccccc3)cc2C=O)cc1OCc1ccccc1
Given back: 130 to 131 °C

Asked: Answer with the recorded melting point for the molecule listed here: CC(C)c1nccn1Cc1ccc2c(c1)-c1[nH]nc(-c3ccsc3)c1C2
Given back: 128 to 129 °C

Asked: Answer with the recorded melting point for the molecule listed here: COc1ccc(CNc2ccccc2C)cc1O
Given back: 104 to 105 °C
